Give measured log10 Ki for each item. Keep answers brief.
Molecular target: Recombinant human JAK2 kinase domain protein (Residues 812-1132) (Homo sapiens, UniProt O60674)
Sequence (O60674 812-1132): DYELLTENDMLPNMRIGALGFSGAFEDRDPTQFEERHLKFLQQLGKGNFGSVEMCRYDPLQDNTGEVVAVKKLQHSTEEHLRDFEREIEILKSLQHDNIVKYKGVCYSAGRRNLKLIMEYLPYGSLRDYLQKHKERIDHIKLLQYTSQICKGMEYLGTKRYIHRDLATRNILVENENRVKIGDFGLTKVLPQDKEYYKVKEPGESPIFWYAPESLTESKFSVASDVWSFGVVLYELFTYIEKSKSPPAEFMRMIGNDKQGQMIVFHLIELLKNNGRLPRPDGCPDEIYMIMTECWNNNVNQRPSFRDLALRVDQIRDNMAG
Test: JAK2 biochemical assay (LabChip mobility shift, Ki)
Details: Biochem JAK2 Ki
Short version: log10 scale, Ki, nM.

Which log10 Ki value is on record for "CNCc1ccnn1-c1cccc(Oc2ccc(OC(F)F)c(-c3nn(C)cc3NC(=O)c3cnn4cccnc34)c2)c1" ?
0.56

Then this compound: "Cn1cc(NC(=O)c2cnn3cccnc23)c(-c2cc(Oc3cccc(CN(CCO)CCO)c3)ccc2OC(F)F)n1"
-0.30

Then this compound: "NCc1ccnn1-c1cccc(Oc2ccc(OC(F)F)c(-c3n[nH]cc3NC(=O)c3cnn4cccnc34)c2)c1"
-0.20

Then this compound: "Cn1cc(NC(=O)c2cnn3cccnc23)c(-c2cc(Oc3cnn(CCO)c3)ccc2OC(F)F)n1"
-0.85

Then this compound: Cc1ccc(Oc2ccc(OC(F)F)c(-c3nn(C[C@@H]4C[C@@H](F)CN4C)cc3NC(=O)c3cnn4cccnc34)c2)cc1C(=O)N(C)C (racemic)
0.11

Then this compound: "NCc1cc(Oc2ccc(OC(F)F)c(-c3n[nH]cc3NC(=O)c3cnn4cccnc34)c2)ccc1F"
-0.55

Then this compound: C[C@H](O)Cn1cc(Oc2ccc(OC(F)F)c(-c3nn(C)cc3NC(=O)c3cnn4cccnc34)c2)cn1 (racemic)
-0.62

Then this compound: "Cc1nn(C)cc1Oc1ccc(OC(F)F)c(-c2nn(C)cc2NC(=O)c2cnn3cccnc23)c1"
-0.64

Then this compound: "CCN1CC(O)(Cn2cc(Oc3ccc(OC(F)F)c(-c4nn(C)cc4NC(=O)c4cnn5cccnc45)c3)cn2)C1"
-0.28

Then this compound: CN1CCOC(c2cccc(Oc3ccc(OC(F)F)c(-c4nn(C)cc4NC(=O)c4cnn5cccnc45)c3)c2)C1 (centres unmarked)
-0.25

Then this compound: "O=C(Nc1c[nH]nc1-c1cc(Oc2ccc3c(c2)CNCC3)ccc1OC(F)F)c1cnn2cccnc12"
-0.77

Then this compound: "CC(C)N1CCC(O)(Cn2cc(Oc3ccc(OC(F)F)c(-c4nn(C)cc4NC(=O)c4cnn5cccnc45)c3)cn2)CC1"
-0.32

Then this compound: "CN(C)C(=O)c1cccc(Oc2ccc(OC(F)F)c(-c3nn(C)cc3NC(=O)c3cnn4cccnc34)c2)c1"
-0.62

Then this compound: "CN1CC(Cn2cc(Oc3ccc(OC(F)F)c(-c4nn(C)cc4NC(=O)c4cnn5cccnc45)c3)cn2)C1"
0.18
